system: Streptococcus pyogenes; test: Antimicrobial activity against Streptococcus pyogenes MTCC 442 assessed as growth inhibition by broth microdilution method; type: functional
Each record here notes measured MIC99.

compound	units-text	sign-qualifier	MIC99
O=C1C(=O)N(CCSC(=S)N2CCN(c3ccc(Cl)c(Cl)c3)CC2)c2ccc(Br)cc21	µg/mL	=	62.5
O=C1C(=O)N(CCSC(=S)N2CCN(c3ccc(Cl)c(Cl)c3)CC2)c2ccccc21	µg/mL	=	100
O=C(O)c1cn(C2CC2)c2cc(N3CCNCC3)c(F)cc2c1=O [CIPROFLOXACIN]	µg/mL	≤	50
O=C1C(=O)N(CCSC(=S)N2CCN(c3ccc(Cl)c(Cl)c3)CC2)c2ccc(F)cc21	µg/mL	=	62.5
O=C1C(=O)N(CCCSC(=S)N2CCN(c3ccc(Cl)c(Cl)c3)CC2)c2ccc([N+](=O)[O-])cc21	µg/mL	=	250
O=C1C(=O)N(CCCSC(=S)N2CCN(c3ccc(Cl)c(Cl)c3)CC2)c2ccc(F)cc21	µg/mL	=	250
O=C1C(=O)N(CCCSC(=S)N2CCN(c3ccc(Cl)c(Cl)c3)CC2)c2ccccc21	µg/mL	=	500
CCn1cc(C(=O)O)c(=O)c2cc(F)c(N3CCNCC3)cc21 [NORFLOXACIN]	µg/mL	≤	10
S=C(SSC(=S)N1CCN(c2ccc(Cl)c(Cl)c2)CC1)N1CCN(c2ccc(Cl)c(Cl)c2)CC1	µg/mL	=	62.5
O=C1C(=O)N(CCSC(=S)N2CCN(c3ccc(Cl)c(Cl)c3)CC2)c2ccc(Cl)cc21	µg/mL	=	250
O=C1C(=O)N(CCCSC(=S)N2CCN(c3ccc(Cl)c(Cl)c3)CC2)c2ccc(Br)cc21	µg/mL	=	100
O=C1C(=O)N(CCCSC(=S)N2CCN(c3ccc(Cl)c(Cl)c3)CC2)c2ccc(Cl)cc21	µg/mL	=	500
CC1(C)S[C@@H]2[C@H](NC(=O)[C@H](N)c3ccccc3)C(=O)N2[C@H]1C(=O)O [AMPICILLIN]	µg/mL	=	100
O=C1C(=O)N(CCSC(=S)N2CCN(c3ccc(Cl)c(Cl)c3)CC2)c2ccc([N+](=O)[O-])cc21	µg/mL	=	100
